system: Rhesus Monkeys; assay: Template bleed times in rhesus monkeys; type: in vivo, rhesus monkey; conditions: 4.0 mg/kg, 3 hr, mean of two animals

| Smiles Code | Template Bleed Times, Mean of animals |
| --- | --- |
| COc1ccc(NC(=O)c2ccc(C(=N)N(C)C)cc2)c(C(=O)Nc2ccc(Cl)cn2)c1 | 1.5 min |

----------
test system: Rhesus Monkeys; assay: Template bleed times in rhesus monkeys; type: in vivo, rhesus monkey; settings: 4.0 mg/kg, 24 hr, mean of two animals

| Smiles Code | Result Unit | Template Bleed Times, Mean of animals |
| --- | --- | --- |
| COc1ccc(NC(=O)c2ccc(C(=N)N(C)C)cc2)c(C(=O)Nc2ccc(Cl)cn2)c1 | min | 2.5 |
